# measured on: CYP3A4 (Homo sapiens, UniProt P08684)
# Sequence (P08684 whole entry): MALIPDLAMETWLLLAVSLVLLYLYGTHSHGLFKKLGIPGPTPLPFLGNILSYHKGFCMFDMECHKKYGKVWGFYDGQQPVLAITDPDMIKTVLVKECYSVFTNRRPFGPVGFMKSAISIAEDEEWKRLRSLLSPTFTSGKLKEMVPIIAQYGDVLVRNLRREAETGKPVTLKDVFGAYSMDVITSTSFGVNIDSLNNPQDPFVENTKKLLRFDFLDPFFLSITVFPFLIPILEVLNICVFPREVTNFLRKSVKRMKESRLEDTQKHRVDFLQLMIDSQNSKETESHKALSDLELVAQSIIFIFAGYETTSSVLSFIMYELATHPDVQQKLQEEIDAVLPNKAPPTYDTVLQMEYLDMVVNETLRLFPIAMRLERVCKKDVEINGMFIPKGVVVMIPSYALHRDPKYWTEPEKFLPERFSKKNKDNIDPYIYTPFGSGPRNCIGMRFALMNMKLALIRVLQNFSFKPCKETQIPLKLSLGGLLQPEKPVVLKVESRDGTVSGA
# measurement protocol: Inhibition of human recombinant CYP3A4 expressed in insect cell microsomes preincubated for 10 mins at 1 uM by fluorescence assay
# experimental conditions: recombinant enzyme
measure: inhibition at 1 µM (%)
Numbers only, in %.

In: Entry under review: CC(=O)N1CCN(c2ccc(OCC3COC(Cn4ccnc4)(c4ccc(Cl)cc4Cl)O3)cc2)CC1 (stereo unspecified) [KETOCONAZOLE] . Reported inhibition at 1 µM?
Out: 87.2

----------
# measured on: CYP3A4 (Homo sapiens, UniProt P08684)
# measurement protocol: Inhibition of human recombinant CYP3A4 expressed in insect cell microsomes preincubated for 10 mins at 10 uM by fluorescence assay
# experimental conditions: recombinant enzyme
measure: inhibition at 10 µM (%)
One number for each entry, in %.

In: Entry under review: CC(=O)N1CCN(c2ccc(OCC3COC(Cn4ccnc4)(c4ccc(Cl)cc4Cl)O3)cc2)CC1 (stereo unspecified) . Reported inhibition at 10 µM?
Out: 92.3

----------
# measured on: UniProtKB P08183
# measurement protocol: Inhibition of human recombinant MDR1 in cell membrane fraction preincubated for 5 mins at 0.1 uM measured after 40 mins by Pgp-Glo luciferase assay
# Format: cell-based
measure: inhibition at 40 min, 0.1 µM

In: Entry under review: COc1cc2c(cc1OC)C(=O)C(CC1CCN(Cc3ccccc3)CC1)C2 (stereo unspecified) [DONEPEZIL] . Reported inhibition at 40 min, 0.1 µM?
Out: < 15%

----------
# measurement protocol: Oral bioavailability in human
# experimental conditions: in vivo
measure: bioavailability (%)
One number for each entry, in %.

In: Entry under review: COc1cc2c(cc1OC)C(=O)C(CC1CCN(Cc3ccccc3)CC1)C2 (stereo unspecified) . Reported bioavailability?
Out: 92

----------
# measured on: UniProt:P08183
# measurement protocol: Inhibition of human recombinant MDR1 in cell membrane fraction preincubated for 5 mins at 10 uM measured after 40 mins by Pgp-Glo luciferase assay
# Format: cell-based
measure: inhibition at 40 min, 10 µM (%)
Numbers only, in %.

In: Entry under review: COc1cc2c(cc1OC)C(=O)C(CC1CCN(Cc3ccccc3)CC1)C2 (stereo unspecified) . Reported inhibition at 40 min, 10 µM?
Out: 23.5

----------
# measurement protocol: Fraction unbound in Sprague-Dawley rat at 5 mg/kg, po
# experimental conditions: in vivo
measure: fraction unbound

In: Entry under review: COc1cc2c(cc1OC)C(=O)C(CC1CCN(Cc3ccccc3)CC1)C2 (stereo unspecified) . Reported fraction unbound?
Out: 0.04

----------
# measured on: MDR1 (P-gp, ABCB1) (Homo sapiens, UniProt P08183)
# Sequence (P08183 whole entry): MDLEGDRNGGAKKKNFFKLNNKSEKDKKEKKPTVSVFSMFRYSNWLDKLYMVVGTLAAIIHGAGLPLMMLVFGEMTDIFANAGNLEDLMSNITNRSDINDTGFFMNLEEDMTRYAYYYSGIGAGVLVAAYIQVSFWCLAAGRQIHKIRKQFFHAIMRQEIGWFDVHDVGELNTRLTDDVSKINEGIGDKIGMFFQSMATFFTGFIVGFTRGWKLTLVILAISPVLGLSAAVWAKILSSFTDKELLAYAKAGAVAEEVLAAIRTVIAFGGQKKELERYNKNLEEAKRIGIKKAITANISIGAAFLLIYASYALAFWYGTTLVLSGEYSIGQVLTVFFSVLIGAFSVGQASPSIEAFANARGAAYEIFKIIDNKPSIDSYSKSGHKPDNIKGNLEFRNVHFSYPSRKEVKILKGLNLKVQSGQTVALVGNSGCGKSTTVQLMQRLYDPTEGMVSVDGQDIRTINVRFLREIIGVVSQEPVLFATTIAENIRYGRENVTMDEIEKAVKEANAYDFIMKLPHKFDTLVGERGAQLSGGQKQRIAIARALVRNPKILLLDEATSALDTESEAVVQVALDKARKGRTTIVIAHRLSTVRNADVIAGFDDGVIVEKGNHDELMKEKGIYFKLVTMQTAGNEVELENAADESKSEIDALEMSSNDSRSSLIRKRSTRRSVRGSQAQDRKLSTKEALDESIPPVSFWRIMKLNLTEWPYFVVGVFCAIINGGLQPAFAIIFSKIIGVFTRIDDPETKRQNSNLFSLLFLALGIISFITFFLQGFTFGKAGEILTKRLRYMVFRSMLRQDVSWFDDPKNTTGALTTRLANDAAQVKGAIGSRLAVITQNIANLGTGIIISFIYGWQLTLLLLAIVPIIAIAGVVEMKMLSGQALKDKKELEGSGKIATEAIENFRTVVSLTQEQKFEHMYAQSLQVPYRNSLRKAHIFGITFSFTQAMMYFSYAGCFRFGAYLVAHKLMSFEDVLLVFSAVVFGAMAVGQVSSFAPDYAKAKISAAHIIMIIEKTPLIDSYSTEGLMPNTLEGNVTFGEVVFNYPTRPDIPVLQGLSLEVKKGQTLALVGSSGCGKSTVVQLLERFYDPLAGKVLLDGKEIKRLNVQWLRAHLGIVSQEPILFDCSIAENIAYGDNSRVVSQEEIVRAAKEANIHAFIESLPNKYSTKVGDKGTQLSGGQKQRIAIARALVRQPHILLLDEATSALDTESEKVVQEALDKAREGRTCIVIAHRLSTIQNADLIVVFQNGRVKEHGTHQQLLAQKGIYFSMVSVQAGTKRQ
# measurement protocol: Inhibition of human recombinant MDR1 in cell membrane fraction preincubated for 5 mins at 1 uM measured after 40 mins by Pgp-Glo luciferase assay
# Assay type: cell-based
measure: inhibition at 40 min, 1 µM (%)
One number for each entry, in %.

In: What value of inhibition at 40 min, 1 µM on MDR1 (P-gp, ABCB1) (Homo sapiens, UniProt P08183) does COc1cc2c(cc1OC)C(=O)C(CC1CCN(Cc3ccccc3)CC1)C2 (stereo unspecified) have?
Out: 17.8
